Protocol summary: AUC in Sprague-Dawley rat at 5 mg/kg, po
Format: ADME, organism-based
Parameters: dose 5 mg/kg, route oral
Condition set: plasma

# Input smiles, Unit of measurement, AUC
records = [
    ("C=C[C@@H]1C[C@]1(NC(=O)[C@@H]1C[C@@H]2CN1C(=O)[C@H](C(C)(C)C)NC(=O)O[C@@H]1C[C@H]1CCCCCc1nc3ccc(OC)cc3nc1O2)C(=O)[N-]S(=O)(=O)C1CC1.[K+]", "µM·h", 0.7),
]

###

Protocol summary: Clearance in beagle dog at 0.5 mg/kg, iv
Type: ADME, organism-based, Canis lupus familiaris
Set-up: dose 0.5 mg/kg, route intravenous
Condition set: in vivo

# Input smiles, Unit of measurement, clearance
rows = [
    ("C=C[C@@H]1C[C@]1(NC(=O)[C@@H]1C[C@@H]2CN1C(=O)[C@H](C(C)(C)C)NC(=O)O[C@@H]1C[C@H]1CCCCCc1nc3ccc(OC)cc3nc1O2)C(=O)[N-]S(=O)(=O)C1CC1.[K+]", "mL/min/kg", 5),
]

###

Protocol summary: Inhibition of Hepatitis C virus (isolate NZL1) genotype 3a NS3/4a protease expressed in Escherichia coli by time-resolved fluorescence analysis
pKi: −log10 of the molar value.
# class assignment by measured pKi: low = under 7, intermediate = from 7 up to 9, high = 9 and over

# Input smiles, Classification
rows = [
    ("C=C[C@@H]1C[C@]1(NC(=O)[C@@H]1C[C@@H]2CN1C(=O)[C@H](C(C)(C)C)NC(=O)OCCCCC/C=C/c1ncccc1O2)C(=O)NS(=O)(=O)C1CC1", "low"),
    ("C=C[C@@H]1C[C@]1(NC(=O)[C@@H]1C[C@@H]2CN1C(=O)[C@H](C(C)(C)C)NC(=O)O[C@@H]1CCC[C@H]1CCCCCc1nc3ccc(OC)cc3cc1O2)C(=O)NS(=O)(=O)C1CC1", "high"),
    ("CC[C@@H]1C[C@]1(NC(=O)[C@@H]1C[C@@H]2CN1C(=O)[C@H](C(C)(C)C)NC(=O)OCC(C)(C)CCCCc1cccc3c1CN(C3)C(=O)O2)C(=O)NS(=O)(=O)C1CC1", "intermediate"),
    ("C=C[C@@H]1C[C@]1(NC(=O)[C@@H]1C[C@@H]2CN1C(=O)[C@H](C1CCCCC1)NC(=O)OCC(C)(C)CCCc1ccc3c(c1)c(nc1ccccc13)O2)C(=O)NS(=O)(=O)C1CC1", "intermediate"),
    ("C=C[C@@H]1C[C@]1(NC(=O)[C@@H]1C[C@@H]2CN1C(=O)[C@H](C(C)(C)C)NC(=O)OCCCCC/C=C/c1cccnc1O2)C(=O)NS(=O)(=O)C1CC1", "low"),
    ("C=C[C@@H]1C[C@]1(NC(=O)[C@@H]1C[C@@H]2CN1C(=O)[C@H](C1CCCCC1)NC(=O)OCC(C)(C)CCCCCc1nc3ccc(OC)cc3cc1O2)C(=O)NS(=O)(=O)C1CC1", "intermediate"),
    ("C=C[C@@H]1C[C@]1(NC(=O)[C@@H]1C[C@@H]2CN1C(=O)[C@H](C1CCCCC1)NC(=O)OCC(C)(C)CCC/C=C/c1nc3ccccc3cc1O2)C(=O)NS(=O)(=O)C1CC1", "intermediate"),
    ("C=C[C@@H]1C[C@]1(NC(=O)[C@@H]1C[C@@H]2CN1C(=O)[C@H](C1CCCCC1)NC(=O)OCC(C)(C)CCCc1ccc3nc(-c4ccccc4)cc(c3c1)O2)C(=O)NS(=O)(=O)C1CC1", "intermediate"),
    ("C=C[C@@H]1C[C@]1(NC(=O)[C@@H]1C[C@@H]2CN1C(=O)[C@H](C(C)(C)C)NC(=O)O[C@@H]1C[C@H]1CCCCCc1nc3ccc(OC)cc3cc1O2)C(=O)NS(=O)(=O)C1CC1", "high"),
    ("C=C[C@@H]1C[C@]1(NC(=O)[C@@H]1C[C@@H]2CN1C(=O)[C@H](C1CCCCC1)NC(=O)OCC(C)(C)CCCCCc1nc3ccccc3cc1O2)C(=O)NS(=O)(=O)C1CC1", "intermediate"),
    ("C=C[C@@H]1C[C@]1(NC(=O)[C@@H]1C[C@@H]2CN1C(=O)[C@H](C1CCCCC1)NC(=O)OCC(C)(C)CCCc1ccc3ccnc(c3c1)O2)C(=O)NS(=O)(=O)C1CC1", "low"),
    ("C=C[C@@H]1C[C@]1(NC(=O)[C@@H]1C[C@@H]2CN1C(=O)[C@H](C(C)(C)C)NC(=O)OCCCCC/C=C/c1nc3ccccc3cc1O2)C(=O)NS(=O)(=O)C1CC1", "intermediate"),
]
